- measurement_description: Solubility of active agents in surfactants (saturation, HPLC)
- Type: physicochemical
- condition_parameters: irinotecan HCl in the surfactant, 40° C.; mean of three ± SD unless a (single) or b (duplicate)
quantity: Solubility Irinotecan HCl (mg/g)

molecule	display_unit	value
CC(C)CCCC(C)CCCC(C)CCCC(C)CCNC(=O)NCCO (stereo not shown)	mg/g	4.36

P. CC(C)CCCC(C)CCCC(C)CCCC(C)CCNC(N)=O (stereo not shown)
Q. CC(C)CCCC(C)CCCC(C)CCNC(N)=O (stereo not shown)
R. CC(C)CCCC(C)CCCC(C)CCCC(C)CCOC(=O)C(O)CO (stereo not shown)
S. CCCCCCCCC=CCCCCCCCCOC(=O)C(O)CO (stereo not shown)
T. CC(C)CCCC(C)CCCC(C)CCCC(C)CCN(CCO)C(N)=O (stereo not shown)
query: Order each entry by recorded Solubility Irinotecan HCl, climbing from the minimum. Use the labels to give the requested order.
result: T, P, R, S, Q

###

- measurement_description: Solubility of active agents in surfactants (saturation, HPLC)
- Type: physicochemical
- condition_parameters: irinotecan base in the surfactant, 40° C.; mean of three ± SD unless a (single) or b (duplicate)
- Experimental: In order for the surfactants to be useful as components of the delivery system, it is important to be able to dissolve biologically active agents in the surfactant or in the water. Table 3 illustrates that the surfactants are useful for dissolving three pharmaceutical compounds that may potentially be delivered using the invention. Solubility was determined by saturation of the surfactant with solid drug at 40° C. until saturation is achieved. Drug level was determined by reverse phase HPLC. […]
quantity: Solubility Irinotecan base (mg/g)

Please review the entries below; each comes with its answer.
molecule	value
CC(C)CCCC(C)CCCC(C)CCCC(C)CCOC(=O)C(O)CO (centres unmarked)	64.54
CCCCCCCCC=CCCCCCCCCOC(=O)C(O)CO (centres unmarked)	35.66
CC(C)CCCC(C)CCCC(C)CCCC(C)CCN(CCO)C(N)=O (centres unmarked)	0.35
CC(C)CCCC(C)CCCC(C)CCCC(C)CCNC(N)=O (centres unmarked)	0.44

A. CC(C)CCCC(C)CCCC(C)CCCC(C)CCNC(=O)NCCO (centres unmarked)
B. CC(C)CCCC(C)CCCC(C)CCNC(N)=O (centres unmarked)
query: Of the pair A and B , name the member with the lesser recorded Solubility Irinotecan base. Refer to your chosen item by its label in the answer.
result: A
(A: 0.94 mg/g, B: 3.76 mg/g)

###

- measurement_description: Solubility of active agents in surfactants (saturation, HPLC)
- Format: physicochemical
- condition_parameters: paclitaxel in the surfactant, 40° C.; mean of three ± SD unless a (single) or b (duplicate)
quantity: Solubility Paclitaxel (mg/g)

Please review the entries below; each comes with its answer.
compound	Solubility Paclitaxel (mg/g)
CC(C)CCCC(C)CCCC(C)CCCC(C)CCNC(=O)NCCO (centres unmarked)	5.67
CC(C)CCCC(C)CCCC(C)CCCC(C)CCNC(N)=O (centres unmarked)	7.85
CCCCCCCCC=CCCCCCCCCOC(=O)C(O)CO (centres unmarked)	8.43
CC(C)CCCC(C)CCCC(C)CCNC(N)=O (centres unmarked)	34.65

1. CC(C)CCCC(C)CCCC(C)CCCC(C)CCN(CCO)C(N)=O (centres unmarked)
2. CC(C)CCCC(C)CCCC(C)CCCC(C)CCOC(=O)C(O)CO (centres unmarked)
query: Of the pair 1 and 2 , name the member with the lesser recorded Solubility Paclitaxel. Refer to your chosen item by its label in the answer.
result: 1
(1: 0.87 mg/g, 2: 4.83 mg/g)

All values here come from patent US20070108405A1.
